Recorded values, source patent US20240000957A1.

- TESTED TARGET: T1, Human EphA2 (Ecto), C-terminal polyHis (Human, UniProt P29317 24-537)
- T1 construct: extracellular domain; R&D systems 3035-A2 or in-house
- T1 sequence (P29317 24-537): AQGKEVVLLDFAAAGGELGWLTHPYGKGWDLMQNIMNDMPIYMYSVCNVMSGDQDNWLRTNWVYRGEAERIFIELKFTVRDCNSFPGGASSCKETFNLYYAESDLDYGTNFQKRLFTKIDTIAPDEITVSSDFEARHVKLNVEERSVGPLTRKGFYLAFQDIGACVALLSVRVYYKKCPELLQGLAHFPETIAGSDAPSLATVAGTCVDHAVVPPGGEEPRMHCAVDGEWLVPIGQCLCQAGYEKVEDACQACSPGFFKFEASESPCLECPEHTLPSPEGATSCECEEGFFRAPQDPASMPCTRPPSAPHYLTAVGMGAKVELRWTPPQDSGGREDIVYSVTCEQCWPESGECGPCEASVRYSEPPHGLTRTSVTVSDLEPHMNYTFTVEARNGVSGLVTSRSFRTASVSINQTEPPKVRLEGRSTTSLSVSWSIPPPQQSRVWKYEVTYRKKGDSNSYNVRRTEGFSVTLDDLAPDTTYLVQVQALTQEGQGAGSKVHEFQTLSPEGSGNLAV
- RUN DESCRIPTION: FP competition vs Reference Compound C
*1 amine or outer side, *2 acyl side, *3 side chain or, on linkers, in order; H or OH if unused. Bridges are numbered along the chain shown (N, C = ends). Where no end group is shown, it is not given here. TATA = O=C(CC[*:1])N1CN(C(=O)CC[*:2])CN(C(=O)CC[*:3])C1
Below is a list of entries, each paired with its recorded Ki value.
ASSAY METRIC: Ki

1) ACPLVNPLCLEPGWTCAKR (linker 2-9-16 via TATA; not fully specified (C-terminus)) [Compound 85]; 10.9 nM
2) ACPLVNPLCLHPGWSCA (linker 2-9-16 via TATA; not fully specified (C-terminus)) [Compound 86]; 56.1 nM
3) ACGFMGLVPCELYCADN (linker 2-10-14 via TATA; not fully specified (C-terminus)) [Compound 51]; 84.4 nM
